Measured IC50 by item
System: Calu-6;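 also: growth of human Calu-6 cells, read out by a cell viability assay, IC50 marking inhibition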
protocol: cells
Type: functional, cell-based, Homo sapiens
assayConditions: Homo sapiens, Calu-6
Description: SANGER: Inhibition of human Calu-6 cell growth in a cell viability assay.

Solved cases below.
O=C(/C=C/c1ccccc1)NC(NC(=S)Nc1cccc2cccnc12)C(Cl)(Cl)Cl (stereo unspecified)
> 16 µM
COc1cc([C@@H]2c3cc4c(cc3[C@@H](O[C@@H]3O[C@@H]5CO[C@@H](C)O[C@H]5[C@H](O)[C@H]3O)[C@H]3COC(=O)[C@H]23)OCO4)cc(OC)c1O [ETOPOSIDE]
4.06 µM
CCc1nc(N)nc(N)c1-c1ccc(Cl)cc1
> 20 µM
Cc1cc(Nc2cc(N3CCN(C)CC3)nc(Sc3ccc(NC(=O)C4CC4)cc3)n2)n[nH]1
> 2 µM
Cn1cc(C2=C(c3ccc(Cl)cc3Cl)C(=O)NC2=O)c2ccccc21
> 10 µM

Supply reported IC50 belonging to this molecule: O=C(c1cc(Cc2n[nH]c(=O)c3ccccc23)ccc1F)N1CCN(C(=O)C2CC2)CC1
> 5 µM

Supply reported IC50 belonging to this molecule: C=C1C(=O)O[C@@H]2C3O[C@]3(C)CC/C=C(\C)CC[C@@H]12 (stereo partly specified)
> 5 µM

Supply reported IC50 belonging to this molecule: CCC(=O)N1CCN(c2ccc(-n3c(=O)ccc4cnc5ccc(-c6cnc7ccccc7c6)cc5c43)cc2C(F)(F)F)CC1
0.165 µM

Supply reported IC50 belonging to this molecule: CN(c1ncccc1CNc1nc(Nc2ccc3c(c2)CC(=O)N3)ncc1C(F)(F)F)S(C)(=O)=O
> 2.56 µM

Supply reported IC50 belonging to this molecule: Cc1ccc(Nc2nccc(N(C)c3ccc4c(C)n(C)nc4c3)n2)cc1S(N)(=O)=O
> 8 µM

Supply reported IC50 belonging to this molecule: CCOc1nc(NC(=O)Cc2cc(OC)ccc2OC)cc(N)c1C#N
> 10 µM

====

Test system: LCLC-97TM1;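 also: cell viability assay measuring growth inhibition of human LCLC-97TM1 cells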
protocol: cells
Type: functional, cell-based, Homo sapiens
assayConditions: Homo sapiens, LCLC-97TM1
Description: SANGER: Inhibition of human LCLC-97TM1 cell growth in a cell viability assay.
attributeMeasured: pIC50
Just the number, please; pIC50 means minus log10 of the concentration in mol/L.

Nc1ccn([C@@H]2O[C@H](CO)[C@@H](O)[C@@H]2O)c(=O)n1 [CYTARABINE]
6.32
CC(=O)O[C@@]12CO[C@@H]1C[C@H](O)[C@@]1(C)C(=O)[C@H](O)C3=C(C)[C@@H](OC(=O)[C@H](O)[C@@H](NC(=O)OC(C)(C)C)c4ccccc4)C[C@@](O)([C@@H](OC(=O)c4ccccc4)[C@H]21)C3(C)C [DOCETAXEL]
8.84
COc1cc([C@@H]2c3cc4c(cc3[C@@H](O[C@@H]3O[C@@H]5CO[C@@H](C)O[C@H]5[C@H](O)[C@H]3O)[C@H]3COC(=O)[C@H]23)OCO4)cc(OC)c1O [ETOPOSIDE]
6.12
COC(=O)CNC(=O)C(=O)OC
3.70
O=C(NOCC1CC1)c1ccc(F)c(F)c1Nc1ccc(I)cc1Cl [CI-1040]
5.72

Next:
Supply reported pIC50 belonging to this compound: C[C@]1(O)C[C@@H](c2nc(-c3ccc4ccc(-c5ccccc5)nc4c3)c3c(N)nccn32)C1 [LINSITINIB]
6.68

====

System: HCC1187
protocol: cells
Format: functional, cell-based, Homo sapiens
assayConditions: Homo sapiens, HCC1187
Description: SANGER: Inhibition of human HCC1187 cell growth in a cell viability assay.
attributeMeasured: IC50

Solved cases below.
COc1ccc(C2=N[C@@H](c3ccc(Cl)cc3)[C@@H](c3ccc(Cl)cc3)N2C(=O)N2CCNC(=O)C2)c(OC(C)C)c1 [NUTLIN-3]
> 8 µM
Cc1cc(Nc2cc(N3CCN(C)CC3)nc(Sc3ccc(NC(=O)C4CC4)cc3)n2)n[nH]1 [TOZASERTIB]
1.01 µM

System HCC1187. Read-out IC50. Item CS(=O)(=O)CCNCc1ccc(-c2ccc3ncnc(Nc4ccc(OCc5cccc(F)c5)c(Cl)c4)c3c2)o1 [LAPATINIB] . Report value.
> 2 µM

System HCC1187. Read-out IC50. Item CN1CCN(CCOc2cc(OC3CCOCC3)c3c(Nc4c(Cl)ccc5c4OCO5)ncnc3c2)CC1 [SARACATINIB] . Report value.
> 2 µM

System HCC1187. Read-out IC50. Item O=C(NOCC1CC1)c1ccc(F)c(F)c1Nc1ccc(I)cc1Cl [CI-1040] . Report value.
> 10 µM

System HCC1187. Read-out IC50. Item COc1cc(F)c(F)c(Nc2ccc(I)cc2F)c1NS(=O)(=O)C1(CC(O)CO)CC1 (centres undefined) . Report value.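 Also: growth inhibition of HCC1187 cells, read out with a cell viability assay.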
> 5 µM

====

Test system: LS-513
protocol: cells
Assay type: functional, cell-based, Homo sapiens
assayConditions: Homo sapiens, LS-513
Description: SANGER: Inhibition of human LS-513 cell growth in a cell viability assay.
attributeMeasured: IC50

Supply reported IC50 belonging to this compound: CN(C)C/C=C/C(=O)Nc1cc2c(Nc3ccc(F)c(Cl)c3)ncnc2cc1O[C@H]1CCOC1 [AFATINIB]
> 0.5 µM

Supply reported IC50 belonging to this compound: Cn1cc(C2=C(c3ccc(Cl)cc3Cl)C(=O)NC2=O)c2ccccc21 [SB-216763]
> 10 µM

Supply reported IC50 belonging to this compound: COc1ccc(-c2ccc3c(N4CCOC[C@@H]4C)nc(N4CCOC[C@@H]4C)nc3n2)cc1CO [AZD-8055]
> 2 µM

Supply reported IC50 belonging to this compound: COc1cc(F)c(F)c(Nc2ccc(I)cc2F)c1NS(=O)(=O)C1(CC(O)CO)CC1 (configuration not stated)
0.414 µM

Supply reported IC50 belonging to this compound: O=C1N=C(NCc2cccs2)S/C1=C\c1ccc2ncccc2c1
> 5 µM

Supply reported IC50 belonging to this compound: CNC(=O)c1cc(Oc2ccc(NC(=O)Nc3ccc(Cl)c(C(F)(F)F)c3)cc2)ccn1 [SORAFENIB]
> 4 µM

Supply reported IC50 belonging to this compound: Cc1cc([C@@H](C)Nc2ccccc2C(=O)O)c2nc(N3CCOCC3)cc(=O)n2c1 [AZD-6482]
> 5.12 µM

====

System: NCI-N87
protocol: cells
Format: functional, cell-based, Homo sapiens
assayConditions: Homo sapiens, NCI-N87
Description: SANGER: Inhibition of human NCI-N87 cell growth in a cell viability assay.
attributeMeasured: IC50

CCOc1nc(NC(=O)Cc2cc(OC)ccc2OC)cc(N)c1C#N
> 10 µM
CN(c1ncccc1CNc1nc(Nc2ccc3c(c2)CC(=O)N3)ncc1C(F)(F)F)S(C)(=O)=O
> 2.56 µM
COc1ccc(-c2ccc3c(N4CCOC[C@@H]4C)nc(N4CCOC[C@@H]4C)nc3n2)cc1CO
> 2 µM

Supply reported IC50 belonging to this compound: COc1ccc(C2=N[C@@H](c3ccc(Cl)cc3)[C@@H](c3ccc(Cl)cc3)N2C(=O)N2CCNC(=O)C2)c(OC(C)C)c1
> 8 µM

Supply reported IC50 belonging to this compound: C=CCNC1=C2C[C@@H](C)C[C@H](OC)[C@H](O)[C@@H](C)/C=C(\C)[C@H](OC(N)=O)[C@@H](OC)/C=C\C=C(/C)C(=O)NC(=CC1=O)C2=O
0.0259 µM

Supply reported IC50 belonging to this compound: Cn1cncc1[C@@](N)(c1ccc(Cl)cc1)c1ccc2c(c1)c(-c1cccc(Cl)c1)cc(=O)n2C
> 16 µM

Supply reported IC50 belonging to this compound: O=C(c1cc(Cc2n[nH]c(=O)c3ccccc23)ccc1F)N1CCN(C(=O)C2CC2)CC1
> 5 µM

====

System: ES4;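 also: growth inhibition of human ES4 cells, read out by a cell viability assay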
protocol: cells
Assay type: functional, cell-based, Homo sapiens
assayConditions: es4
Description: SANGER: Inhibition of human ES4 cell growth in a cell viability assay.
attributeMeasured: IC50

Supply reported IC50 belonging to this compound: Cc1cc([C@@H](C)Nc2ccccc2C(=O)O)c2nc(N3CCOCC3)cc(=O)n2c1
> 5.12 µM

====

Test system: AGS;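 also: growth inhibition of AGS cells, determined with a cell viability assay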
protocol: cells
Assay type: functional, cell-based, Homo sapiens
assayConditions: ags
Description: SANGER: Inhibition of human AGS cell growth in a cell viability assay.
pIC50: −log10 of the molar value.
attributeMeasured: pIC50

Supply reported pIC50 belonging to this compound: Cc1cc([C@@H](C)Nc2ccccc2C(=O)O)c2nc(N3CCOCC3)cc(=O)n2c1
< 5.29

====

Tested on: TE-15;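 also: cell viability readout of growth inhibition in TE-15 cells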
protocol: cells
Assay type: functional, cell-based
assayConditions: Homo sapiens
Description: SANGER: Inhibition of human TE-15 cell growth in a cell viability assay.
pIC50: −log10 of the molar value.
Parameter threshold = 6. Response is Criterion met when pIC50 meets or exceeds it, else Criterion not met.

CCC1=C[C@@H]2CN(C1)Cc1c([nH]c3ccccc13)[C@@](C(=O)OC)(c1cc3c(cc1OC)N(C)[C@H]1[C@@](O)(C(=O)OC)[C@H](OC(C)=O)[C@]4(CC)C=CCN5CC[C@]31[C@@H]54)C2 [VINORELBINE]
Criterion met
CN1CCN(CCOc2cc(OC3CCOCC3)c3c(Nc4c(Cl)ccc5c4OCO5)ncnc3c2)CC1 [SARACATINIB]
Criterion met

Given the entry CN(c1ncccc1CNc1nc(Nc2ccc3c(c2)CC(=O)N3)ncc1C(F)(F)F)S(C)(=O)=O [PF-00562271] , answer whether its pIC50 meets or surpasses 6.
Criterion not met

Given the entry Cc1cnc(-c2cnc(NCCNc3ccc(C#N)cn3)nc2-c2ccc(Cl)cc2Cl)[nH]1 [LADUVIGLUSIB] , answer whether its pIC50 meets or surpasses 6.
Criterion not met

Given the entry CC1=C2C[C@H]3[C@@H](CC=C4C[C@@H](O)CC[C@@]43C)[C@@H]2CC[C@]12O[C@@H]1C[C@H](C)CN[C@H]1[C@H]2C [CYCLOPAMINE] , answer whether its pIC50 meets or surpasses 6.
Criterion not met

Where do these numbers come from? They come from ChEMBL document CHEMBL1201861.
